- Method summary: Solubility in aqueous solutions (Table 3)
- Assay type: physicochemical
- Run conditions: aqueous solution, pH 5.6, aqueous buffer
Outcome measure: solubility

QUERY: Sample `CC(=O)c1ccc2c(c1)[C@H](NC(=O)c1ccc(F)c(Cl)c1)[C@H](OC(=O)[C@H](C)NC(=O)[C@@H](N)C(C)C)C(C)(C)O2.Cl` — what was its solubility?
RESULT: > 10000 µg/mL
